Recorded melting point, one value per entry.

Example compounds with recorded melting point:
>  <smiles-notation>
Cn1ccc(-c2ccccc2F)c1CNC(=O)OC(C)(C)C

>  <melting point>
81 to 84 °C

$$$$
>  <smiles-notation>
Cn1ccc(-c2ccccc2)c1CNC(=O)OC(C)(C)C

>  <melting point>
87 to 90 °C

$$$$
>  <smiles-notation>
Cn1ccc(-c2ccc(Br)cc2)c1CNC(=O)OC(C)(C)C

>  <melting point>
109 to 113 °C

$$$$
>  <smiles-notation>
Cn1ccc(-c2ccc(Br)cc2)c1C(N)=O

>  <melting point>
172 to 174 °C

$$$$

Input Cn1ccc(-c2cccc(Br)c2)c1CNC(=O)OC(C)(C)C . Output melting point: 124 to 127 °C

Input Cn1ccc(-c2ccc(C(F)(F)F)cc2)c1CNC(=O)OC(C)(C)C . Output melting point: 120 to 122 °C

Input Cn1ccc(-c2cccc(F)c2)c1CNC(=O)OC(C)(C)C . Output melting point: 103 to 104 °C
